- test.details: small molecules captured by biotinylated probe aFST – biochemical, small-molecule microarray, fluorescence 635/667, stem cell growth factor project, primary screen (AID 1086);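 also: score merges 667 nm fluorescence with signal-to-noise of each printed compound spot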
- conditions.used: higher = more signal
assay.metric: composite z-score
# output: bare number, no unit

c1ccc(-c2cc3c(nc2-c2ccccc2)CCNC3)cc1
0.0294

Inquiry: Requested read-out: composite z-score. Entry: CCc1cc2c(nc1CC)CCN(CCC(C)=NOC)C2
Reply text: 0.497

Inquiry: Requested read-out: composite z-score. Entry: C=C(CC1(C(C)NP(=O)(c2ccccc2)c2ccccc2)CC1)c1ccccc1 (stereo not drawn)
Reply text: 0.881

###

- assayed.target: E3 ubiquitin-protein ligase XIAP (Homo sapiens) (UniProt P98170)
- Sequence (P98170 whole entry, looked up): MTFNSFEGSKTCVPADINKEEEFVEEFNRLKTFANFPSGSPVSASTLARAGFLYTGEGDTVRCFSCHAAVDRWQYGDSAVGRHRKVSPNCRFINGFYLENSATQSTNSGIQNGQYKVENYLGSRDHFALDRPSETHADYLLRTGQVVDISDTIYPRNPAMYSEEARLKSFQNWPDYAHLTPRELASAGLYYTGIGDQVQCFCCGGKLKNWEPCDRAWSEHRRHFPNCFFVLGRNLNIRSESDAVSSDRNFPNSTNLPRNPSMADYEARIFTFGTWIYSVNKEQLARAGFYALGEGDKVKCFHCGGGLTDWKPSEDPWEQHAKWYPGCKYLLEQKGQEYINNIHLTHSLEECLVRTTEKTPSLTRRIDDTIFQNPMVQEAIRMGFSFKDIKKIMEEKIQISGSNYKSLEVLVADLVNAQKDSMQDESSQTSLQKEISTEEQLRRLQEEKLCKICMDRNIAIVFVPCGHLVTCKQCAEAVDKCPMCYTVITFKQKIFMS
- test.details: small molecules binding XIAP protein – biophysical, small-molecule microarray, fluorescence 635 nm, primary screen (AID 1181);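 also: score merges 667 nm emission and signal to noise over triplicate slides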
- conditions.used: higher = more signal
Decision: composite z-score >= 0.1 yields true, all other cases yield false.

COC(=O)NCC=Cc1nc(CCC=CC(=O)O[C@H]2CC3CC(=O)O[C@@H](C=CCC(C)C)C[C@@H]4CC[C@H](C)[C@@H](C[C@@H](OC)C[C@H](C2)O3)O4)co1
false
COC(=O)[C@@]1(Cc2ccccc2)[C@H]2c3cc(C(=O)N(C)C)[nH]c3C[C@H]2CN1C(=O)c1ccccc1
true

Inquiry: hey, is composite z-score for this one >= 0.1? CCCC=C(CCC)[C@@H](NP(=O)(c1ccccc1)c1ccccc1)c1ccccc1
Reply text: false

Inquiry: hey, is composite z-score for this one >= 0.1? c1ccc(-c2cc3c(nc2-c2ccccc2)CCNC3)cc1
Reply text: false

Inquiry: hey, is composite z-score for this one >= 0.1? CN1CCC(c2ccc(CO)cc2)=CC1c1cccs1 (configuration not stated)
Reply text: true

Inquiry: hey, is composite z-score for this one >= 0.1? CN1CCc2nc(CO)c(CO)cc2C1
Reply text: false

Inquiry: hey, is composite z-score for this one >= 0.1? O=P(c1ccccc1)(c1ccccc1)N1CC2(CC2)CC(O)(c2ccccc2)C1 (configuration not stated)
Reply text: true

###

- Tested on: Noggin (protein binding on small-molecule microarray)
- test.details: small molecules binding Noggin protein – biochemical, 635/667 nm fluorescence, primary screen (AID 1095);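 also: score merges 667 nm feature fluorescence with signal to noise over triplicate slides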
- conditions.used: 635 nm fluorescence, higher = more signal
assay.metric: composite z-score
# output: bare number, no unit

COC(=O)[C@@]1(Cc2ccc(F)cc2)[C@H]2c3cc(C(=O)N(C)C)[nH]c3C[C@H]2CN1C(=O)c1ccccc1
-0.512
OCc1ccc(C2=CC(c3cccs3)N(Cc3cccc(OC(F)(F)F)c3)CC2)cc1 (centres undefined)
0.257
COC(=O)[C@@]1(Cc2ccccc2)[C@H]2c3cc(C(=O)N(C)C)n(C)c3C[C@H]2CN1C(=O)c1ccccc1
-0.73

Inquiry: Short answer please: composite z-score, Noggin (protein binding on small-molecule microarray), entry COC(=O)[C@@]1(Cc2ccccc2)[C@H]2c3cc(C(=O)N(C)C)[nH]c3C[C@H]2CN1C(=O)c1ccccc1
Reply text: -1.23

###

- test.details: Pseudomonas biofilm growth suppression – PAO1 strain, BacTiter-Glo luminescence, LB-PBS, primary screen (AID 1144)
- conditions.used: P. aeruginosa PAO1 biofilm, 12 h, higher = more signal
Activity calls are given as the source filed them. How the calls were made is not given here.
assay.metric: z-score

CN1CCC(c2ccc(CO)cc2)=CC1C1CC1 (configuration not stated)
0.656 (inactive)
COC(=O)C1(C)C=C2C(=C(C)C(=O)C2C)CN1 (configuration not stated)
-0.596 (inactive)
c1ccc(-c2cc3c(nc2-c2ccccc2)CCNC3)cc1
0.346 (inactive)
CCCc1cc2c(n1CCO)C(C)C1CN(C(=O)c3ccccc3)C(C)(C(=O)OC)C21 (configuration not stated)
0.251 (inactive)
COc1cc2c(cc1O)C(C)N(C)CC2 (configuration not stated)
0.67 (inactive)
COc1cc2c(cc1O)C=[N+](C)CC2
-0.527 (inactive)

Inquiry: Requested read-out: z-score. Entry: C[C@H]1O[C@H]2C3=C(C(=O)[C@@H]4O[C@@H]4[C@@H]3O)[C@@H]1[C@@H]1[C@@H](C)OC=C3[C@@H](O)[C@H]4O[C@H]4C(=O)[C@]312
Reply text: -1.61 (inactive)

Inquiry: Requested read-out: z-score. Entry: CCOC(=O)[C@H]1CC=C2C(=O)Oc3ccc(Br)cc3[C@@H]21
Reply text: -0.301 (inactive)

###

# composite z-score per record follows
- assayed.target: Albumin (Bos taurus) (UniProt P02769)
- Sequence (P02769 whole entry, looked up): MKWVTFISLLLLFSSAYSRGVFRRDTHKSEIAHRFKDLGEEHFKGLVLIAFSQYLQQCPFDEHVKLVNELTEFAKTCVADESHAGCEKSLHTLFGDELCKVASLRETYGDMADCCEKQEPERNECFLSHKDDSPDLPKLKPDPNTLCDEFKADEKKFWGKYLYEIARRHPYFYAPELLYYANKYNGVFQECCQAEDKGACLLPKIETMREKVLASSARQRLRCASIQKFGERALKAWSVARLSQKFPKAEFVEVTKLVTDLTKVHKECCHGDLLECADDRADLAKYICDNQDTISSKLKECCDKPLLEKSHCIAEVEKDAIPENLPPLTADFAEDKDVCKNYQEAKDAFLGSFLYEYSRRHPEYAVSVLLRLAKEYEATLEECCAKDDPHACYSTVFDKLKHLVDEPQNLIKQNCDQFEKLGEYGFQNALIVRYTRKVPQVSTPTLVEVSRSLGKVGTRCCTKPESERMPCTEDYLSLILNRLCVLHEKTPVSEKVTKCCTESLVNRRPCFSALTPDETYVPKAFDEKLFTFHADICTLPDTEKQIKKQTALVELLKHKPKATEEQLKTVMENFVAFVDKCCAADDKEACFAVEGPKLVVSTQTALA
- test.details: compounds binding labelled BSA control protein – biochemical, small-molecule microarray, Alexa647 label, 635/667 nm fluorescence, artefact control for SMM control protein annotation, profiling panel (AID 1118);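 also: score merges 667 nm emission intensity and signal-to-noise per printed compound spot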
- conditions.used: BSA-A647 binding, fluorescence 635 nm, higher = more signal
# output: bare number, no unit

Please review the following examples before continuing.
COc1cc2c(cc1O)C=[N+](C)CC2
0.502
CCOC(=O)[C@H]1CC=C2C(=O)Oc3ccc(Br)cc3[C@@H]21
-0.104

Could you now consider this next molecule?
Inquiry: Requested read-out: composite z-score. Entry: C=C(CC1(CNP(=O)(c2ccccc2)c2ccccc2)CC1)c1ccccc1
Reply text: 0.44

###

# composite z-score per record follows
- Test system: Chordin-like protein 2 (CHRDL2)
- test.details: compounds binding chordin-like 2 – biochemical, small-molecule microarray, 635 nm fluorescence, primary screen (AID 1126);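 also: printed compound slides probed with Chrdl2 protein at 4 µg/mL for 1 h at 4 C; score merges 667 nm emission intensity with signal to noise over three replicate slides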
- conditions.used: fluorescence 635 nm, higher = more signal
# output: bare number, no unit

Please review the following examples before continuing.
C[C@H]1O[C@H]2C3=C(C(=O)[C@@H]4O[C@@H]4[C@@H]3O)[C@@H]1[C@@H]1[C@@H](C)OC=C3[C@@H](O)[C@H]4O[C@H]4C(=O)[C@]312
-0.0769
CCOC(=O)[C@H]1CC=C2C(=O)Oc3ccccc3[C@@H]21
-0.94
OCc1ccc(C2=CC(C3CC3)N(Cc3sc4ccccc4c3Cl)CC2)cc1 (centres undefined)
0.529
C[C@@H]1OC=C2[C@@H](O)[C@H]3O[C@H]3C(=O)[C@]23[C@H]1[C@H]1C2=C([C@@H](O)[C@H]4O[C@H]4C2=O)[C@@H]3O[C@@H]1C
0.584
C[C@@H]1Cc2c(cnc3c2CN(C)CC3)CO1
0.975
CCOC(=O)[C@H]1CC=C2C(=O)Oc3ccc(Br)cc3[C@@H]21
-1.24
COC(=O)[C@@]1(Cc2ccccc2)[C@H]2c3cc(C(=O)N(C)C)[nH]c3C[C@H]2CN1C(=O)c1ccccc1
-0.219
COc1cc2c(cc1O)C(C)N(C)CC2 (centres undefined)
-0.432

Inquiry: Requested read-out: composite z-score. Entry: CCCc1cc2c(n1Cc1ccco1)C(C)C1CN(C(=O)c3ccccc3)C(C)(C(=O)OC)C21 (centres undefined)
Reply text: 0.515

###

- Tested on: Human papillomavirus type 1a E7 protein (residues 1-88)
- test.details: HPV1a E7 small-molecule binders, primary screen, biochemical, small-molecule microarray, residues 1-88, 635 nm (AID 1129)
- conditions.used: small-molecule microarray binding, fluorescence 635 nm; higher = more signal
assay.metric: composite z-score
# output: bare number, no unit

COC(=O)[C@@]1(Cc2ccccc2)[C@H]2c3cc(C(=O)N(C)C)n(C)c3C[C@H]2CN1C(=O)c1ccccc1
0.898
CCCC=C(CCC)[C@@H](NP(=O)(c1ccccc1)c1ccccc1)c1ccccc1
1.03
OCc1ccc(C2=CC(C3CC3)N(Cc3sc4ccccc4c3Cl)CC2)cc1 (configuration not stated)
1.17
C[C@H]1O[C@H]2C3=C(C(=O)[C@@H]4O[C@@H]4[C@@H]3O)[C@@H]1[C@@H]1[C@@H](C)OC=C3[C@@H](O)[C@H]4O[C@H]4C(=O)[C@]312
-0.539
COC(=O)[C@@]1(Cc2ccccc2)[C@H]2c3cc(C(=O)N(C)C)[nH]c3C[C@H]2CN1C(=O)c1ccccc1
-1.26

Inquiry: Requested read-out: composite z-score. Entry: COC(=O)[C@@]1(Cc2ccc(F)cc2)[C@H]2c3cc(C(=O)N(C)C)[nH]c3C[C@H]2CN1C(=O)c1ccccc1
Reply text: 0.733

Inquiry: Requested read-out: composite z-score. Entry: CCCc1cc2c(n1CCO)C(C)C1CN(C(=O)c3ccccc3)C(C)(C(=O)OC)C21 (configuration not stated)
Reply text: 1.14

###

# composite z-score per record follows
- test.details: probe aWnt5a binding to arrayed compounds – biochemical, biotinylated probe, 635/667 nm fluorescence, primary screen (AID 1113);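 also: score merges 667 nm fluorescence intensity with signal-to-noise per printed feature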
- conditions.used: higher = more signal; small-molecule microarray, probe aWnt5a, fluorescence unless noted
# output: bare number, no unit

Please review the following examples before continuing.
C[C@@H]1Cc2c(cnc3c2CN(C)CC3)CO1
-0.0221
CCc1cc2c(nc1CC)CCN(CCC(C)=NOC)C2
0.0375
OCc1ccc(C2=CC(c3cccs3)N(Cc3cccc(OC(F)(F)F)c3)CC2)cc1 (centres undefined)
-0.091

Could you now consider this next compound?
Inquiry: Requested read-out: composite z-score. Entry: COc1cc2c(cc1O)C=[N+](C)CC2
Reply text: -0.15
